Reported Ki values for the following compounds.
# study system: Sushi domains (SD1/2) protein
# assay overview: Fluorescence polarization (FP) competition assay with AJAP-1probe, calculated Ki
# Assay type: binding
# condition description: Table 4, truncation and elongation scans of APP epitope; read-out: Ki (nM) mean ± SEM
# Method: Fluorescence polarization (FP). FP assay was employed to determine the binding affinity of peptides in flat bottom black 384-well plates (Corning Life Science) using a Safire2 plate reader (Tecan). […] The fluorescence polarization values were measured using excitation/emission wavelengths of 530/580 nm. The instrumental Z-factor was adjusted to obtain the maximum fluorescence intensity and the G-factor was calibrated to give an initial millipolarization value of 20 mP. […]
Residues, ends and D or L forms follow the SMILES beside them.
Use nM as the unit, but write only the number.

compound	study system	measurement unit	test value
CC(=O)N[C@@H](CO)C(=O)N[C@@H](CC(=O)O)C(=O)N[C@H](C(=O)N[C@@H](Cc1c[nH]c2ccccc12)C(=O)N[C@@H](Cc1c[nH]c2ccccc12)C(=O)NCC(=O)NCC(=O)N[C@@H](C)C(=O)N[C@@H](CC(=O)O)C(=O)N[C@H](C(=O)N[C@@H](CC(=O)O)C(=O)N[C@@H](Cc1ccc(O)cc1)C(=O)N[C@@H](C)C(=O)N[C@@H](CC(=O)O)C(N)=O)[C@@H](C)O)C(C)C (Ac-SDVWWGGADTDYAD-NH2)	Sushi domains (SD1/2) protein	nM	2950

Please find the next compound below.
# Ki (compound: CC(=O)N[C@@H](CCC(=O)O)C(=O)N[C@@H](CCC(=O)O)C(=O)N[C@@H](CC(=O)O)C(=O)N[C@@H](CC(=O)O)C(=O)N[C@@H](CO)C(=O)N[C@@H](CC(=O)O)C(=O)N[C@H](C(=O)N[C@@H](Cc1c[nH]c2ccccc12)C(=O)N[C@@H](Cc1c[nH]c2ccccc12)C(=O)NCC(=O)NCC(=O)N[C@@H](C)C(=O)N[C@@H](CC(=O)O)C(=O)N[C@H](C(=O)N[C@@H](CC(=O)O)C(=O)N[C@@H](Cc1ccc(O)cc1)C(=O)N[C@@H](C)C(N)=O)[C@@H](C)O)C(C)C (Ac-EEDDSDVWWGGADTDYA-NH2) ) is 299

* * *

molecules and their reported Ki
# study system: Sushi domains (SD1/2) protein
# assay overview: Fluorescence polarization (FP) competition assay with AJAP-1probe, calculated Ki
# Assay type: binding
# condition description: Table 7, Ala-, D-amino acids and N-methylation scans of APPWT; read-out: Ki (nM) mean ± SEM
Non-standard residues stand in square brackets, D forms with d. Residues, ends and D or L forms follow the SMILES beside them. NMeT = CN[C@H](C(=O)O)[C@@H](C)O; NMeD = CN[C@@H](CC(=O)O)C(=O)O; Sar = CNCC(=O)O
The reply should contain only the number, in nM.

Consider the worked cases shown below.
molecule	test value
CC(=O)N[C@@H](CCC(=O)O)C(=O)N[C@@H](CC(=O)O)C(=O)N[C@@H](CC(=O)O)C(=O)N[C@@H](CO)C(=O)N(C)[C@@H](CC(=O)O)C(=O)N[C@H](C(=O)N[C@@H](Cc1c[nH]c2ccccc12)C(=O)N[C@@H](Cc1c[nH]c2ccccc12)C(=O)NCC(=O)NCC(=O)N[C@@H](C)C(=O)N[C@@H](CC(=O)O)C(=O)N[C@H](C(=O)N[C@@H](CC(=O)O)C(N)=O)[C@@H](C)O)C(C)C (Ac-EDDS[NMeD]VWWGGADTD-NH2)	3760
CC(=O)N[C@@H](CCC(=O)O)C(=O)N[C@@H](CC(=O)O)C(=O)N[C@@H](CC(=O)O)C(=O)N[C@@H](CO)C(=O)N[C@@H](CC(=O)O)C(=O)N[C@H](C(=O)N[C@@H](Cc1c[nH]c2ccccc12)C(=O)N[C@@H](Cc1c[nH]c2ccccc12)C(=O)N(C)CC(=O)NCC(=O)N[C@@H](C)C(=O)N[C@@H](CC(=O)O)C(=O)N[C@H](C(=O)N[C@@H](CC(=O)O)C(N)=O)[C@@H](C)O)C(C)C (Ac-EDDSDVWW[Sar]GADTD-NH2)	18900

Now examine the next entry.
Let me check: CC(=O)N[C@@H](CCC(=O)O)C(=O)N[C@@H](CC(=O)O)C(=O)N[C@@H](CC(=O)O)C(=O)N[C@@H](CO)C(=O)N[C@@H](CC(=O)O)C(=O)N[C@H](C(=O)N[C@@H](Cc1c[nH]c2ccccc12)C(=O)N[C@@H](Cc1c[nH]c2ccccc12)C(=O)NCC(=O)NCC(=O)N[C@@H](C)C(=O)N[C@@H](CC(=O)O)C(=O)N(C)[C@H](C(=O)N[C@@H](CC(=O)O)C(N)=O)[C@@H](C)O)C(C)C (Ac-EDDSDVWWGGAD[NMeT]D-NH2) , system Sushi domains (SD1/2) protein, measured Ki is 503

* * *

# study system: Sushi domains (SD1/2) protein
# assay overview: Fluorescence polarization (FP) competition assay with AJAP-1probe, calculated Ki
# Assay type: binding
# condition description: Table 1, affinity maturation; mean ± SEM, n ≥ 3; read-out: Ki
Residues, ends and D or L forms follow the SMILES beside them.
assay metric: Ki (nM)
Number only, in nM; omit the unit.

Looking up CC(=O)N[C@@H](CCC(=O)O)C(=O)N[C@@H](CC(=O)O)C(=O)N[C@@H](CC(=O)O)C(=O)N[C@@H](CO)C(=O)N[C@@H](CC(=O)O)C(=O)N[C@H](C(=O)N[C@@H](Cc1c[nH]c2ccccc12)C(=O)N[C@@H](Cc1c[nH]c2ccccc12)C(=O)NCC(=O)N1CCC[C@H]1C(=O)N[C@H](C(=O)NCC(=O)N[C@@H](CC(=O)O)C(=O)N[C@@H](CCC(=O)O)C(=O)N[C@@H](CC(=O)O)C(N)=O)[C@@H](C)O)C(C)C [Peptide X, Ac-EDDSDVWWGPTGDED-NH2] (Ac-EDDSDVWWGPTGDED-NH2) , I see its Ki listed as 62

* * *

# study system: Sushi domains (SD1/2) protein
# assay overview: Fluorescence polarization (FP) competition assay with AJAP-1probe, calculated Ki
# Assay type: binding
# condition description: Table 13, peptides for affinity maturation; read-out: Ki (nM) mean ± SEM
Non-standard residues stand in square brackets, D forms with d. Residues, ends and D or L forms follow the SMILES beside them. Sar = CNCC(=O)O
assay metric: Ki (nM)
State the answer as a number, implicitly in nM.

Worked cases, Ki given:
compound	study system	Ki, nM
CC(=O)N[C@@H](CCC(=O)O)C(=O)N[C@@H](CC(=O)O)C(=O)N[C@@H](CC(=O)O)C(=O)N[C@@H](CO)C(=O)N[C@@H](Cc1c[nH]c2ccccc12)C(=O)N[C@H](C(=O)N[C@@H](Cc1c[nH]c2ccccc12)C(=O)N[C@@H](Cc1c[nH]c2ccccc12)C(=O)NCC(=O)N(C)CC(=O)N[C@@H](C)C(=O)N[C@@H](CC(=O)O)C(=O)N[C@H](C(=O)N[C@@H](CC(=O)O)C(N)=O)[C@@H](C)O)C(C)C (Ac-EDDSWVWWG[Sar]ADTD-NH2)	Sushi domains (SD1/2) protein	36
CC[C@H](C)[C@H](NC(=O)[C@H](Cc1c[nH]c2ccccc12)NC(=O)[C@H](CC(=O)O)NC(=O)[C@H](CC(=O)O)NC(=O)[C@H](CC(=O)O)NC(=O)[C@H](CCC(=O)O)NC(C)=O)C(=O)N[C@@H](CC(=O)O)C(=O)N[C@@H](Cc1c[nH]c2ccccc12)C(=O)N[C@@H](Cc1ccc(O)cc1)C(=O)N[C@@H](CC(=O)O)C(=O)N[C@@H](CO)C(=O)N[C@@H](CC(=O)O)C(=O)N[C@@H](CC(=O)O)C(=O)N[C@@H](CC(=O)O)C(N)=O [Peptide 16] (Ac-EDDDWIDWYDSDDD-NH2)	Sushi domains (SD1/2) protein	3.2
CC(=O)N[C@@H](CCC(=O)O)C(=O)N[C@@H](CC(=O)O)C(=O)N[C@@H](CC(=O)O)C(=O)N[C@@H](CO)C(=O)N[C@@H](CC(=O)O)C(=O)N[C@H](C(=O)N[C@@H](Cc1c[nH]c2ccccc12)C(=O)N[C@@H](Cc1c[nH]c2ccccc12)C(=O)N[C@@H](Cc1ccc(O)cc1)C(=O)NCC(=O)N(C)CC(=O)N[C@H](C(=O)NCC(=O)N[C@@H](CC(=O)O)C(=O)N[C@@H](CCC(=O)O)C(=O)N[C@@H](CC(=O)O)C(N)=O)[C@@H](C)O)C(C)C (Ac-EDDSDVWWYG[Sar]TGDED-NH2)	Sushi domains (SD1/2) protein	138
CC[C@H](C)[C@H](NC(=O)[C@H](C)NC(=O)[C@H](Cc1c[nH]c2ccccc12)NC(=O)[C@@H]1CCCN1C(C)=O)C(=O)N[C@H](C(=O)N[C@@H](Cc1c[nH]c2ccccc12)C(=O)NCC(=O)N(C)CC(=O)N[C@H](C(=O)N[C@H](C(=O)N[C@@H](CO)C(=O)N[C@@H](CCCNC(=N)N)C(=O)N[C@@H](CCC(=O)O)C(=O)N[C@@H](CC(=O)O)C(N)=O)C(C)C)[C@@H](C)O)C(C)C [PWAIVWG(N-Me-G)TVSRED] (Ac-PWAIVWG[Sar]TVSRED-NH2)	Sushi domains (SD1/2) protein	525
CC(=O)N[C@@H](CCC(=O)O)C(=O)N[C@@H](CC(=O)O)C(=O)N[C@@H](CC(=O)O)C(=O)N[C@@H](CO)C(=O)N[C@@H](CC(=O)O)C(=O)N[C@H](C(=O)N[C@@H](Cc1c[nH]c2ccccc12)C(=O)N[C@@H](Cc1c[nH]c2ccccc12)C(=O)NCC(=O)N1CCC[C@H]1C(=O)N[C@H](C(=O)NCC(=O)N[C@@H](CC(=O)O)C(=O)N[C@@H](CCC(=O)O)C(=O)N[C@@H](CC(=O)O)C(N)=O)[C@@H](C)O)C(C)C [Peptide X, Ac-EDDSDVWWGPTGDED-NH2] (Ac-EDDSDVWWGPTGDED-NH2)	Sushi domains (SD1/2) protein	62
CC[C@H](C)[C@H](NC(=O)[C@H](Cc1ccccc1)NC(=O)[C@H](CCC(=O)O)NC(=O)[C@@H](NC(=O)[C@H](CCC(=O)O)NC(C)=O)[C@@H](C)O)C(=O)N[C@@H](C)C(=O)N[C@@H](Cc1c[nH]c2ccccc12)C(=O)NCC(=O)NCC(=O)N[C@@H](C)C(=O)N[C@@H](CC(=O)O)C(=O)N[C@H](C(=O)N[C@@H](CC(=O)O)C(N)=O)[C@@H](C)O [Peptide Y] (Ac-ETEFIAWGGADTD-NH2)	Sushi domains (SD1/2) protein	345
CC[C@H](C)[C@H](NC(=O)[C@H](Cc1ccccc1)NC(=O)[C@H](CCC(=O)O)NC(=O)[C@@H](NC(=O)[C@H](CCC(=O)O)NC(C)=O)[C@@H](C)O)C(=O)N[C@@H](C)C(=O)N[C@@H](Cc1c[nH]c2ccccc12)C(=O)N[C@@H](Cc1ccc(O)cc1)C(=O)N1CCC[C@H]1C(=O)N[C@H](C(=O)NCC(=O)N[C@@H](CC(=O)O)C(=O)N[C@@H](CCC(=O)O)C(=O)N[C@@H](CC(=O)O)C(N)=O)[C@@H](C)O [ETEFIAWYPTGDED] (Ac-ETEFIAWYPTGDED-NH2)	Sushi domains (SD1/2) protein	199
CC[C@H](C)[C@H](NC(=O)[C@H](Cc1c[nH]c2ccccc12)NC(=O)[C@H](CO)NC(=O)[C@H](CC(=O)O)NC(=O)[C@H](CC(=O)O)NC(=O)[C@H](CCC(=O)O)NC(C)=O)C(=O)N[C@@H](Cc1c[nH]c2ccccc12)C(=O)N[C@@H](Cc1c[nH]c2ccccc12)C(=O)NCC(=O)N1CCC[C@H]1C(=O)N[C@H](C(=O)NCC(=O)N[C@@H](CC(=O)O)C(=O)N[C@@H](CCC(=O)O)C(=O)N[C@@H](CC(=O)O)C(N)=O)[C@@H](C)O [Peptide 27, Ac-EDDSWIWWGPTGDED-NH2] (Ac-EDDSWIWWGPTGDED-NH2)	Sushi domains (SD1/2) protein	16

Now look at this entry.
Ki in this record for CC[C@H](C)[C@H](NC(=O)[C@H](Cc1ccccc1)NC(=O)[C@H](CCC(=O)O)NC(=O)[C@@H](NC(=O)[C@H](CCC(=O)O)NC(C)=O)[C@@H](C)O)C(=O)N[C@@H](C)C(=O)N[C@@H](Cc1c[nH]c2ccccc12)C(=O)NCC(=O)N(C)CC(=O)N[C@H](C(=O)NCC(=O)N[C@@H](CC(=O)O)C(=O)N[C@@H](CCC(=O)O)C(=O)N[C@@H](CC(=O)O)C(N)=O)[C@@H](C)O [Peptide 38] (Ac-ETEFIAWG[Sar]TGDED-NH2) : 32

Ref: patent US20260193293A1
